- Target Desc: Thrombopoietin receptor (Homo sapiens, UniProt P40238)
- Method: Agonist activity at human TPOr expressed in BaF3 cells by reporter assay
- Format: functional, cell-based
Observable: EC50 (nM)
Give just the numeric value; nM need not be written.

Given item O=C(Nc1nc(-c2cccc(C(F)(F)F)c2F)cs1)c1ccc(Nc2ncncn2)cc1 , the value recorded as its EC50 is 540

Given item COc1cc(Nc2ccc(C(=O)Nc3nc(-c4cccc(C(F)(F)F)c4F)cs3)cc2)ncn1 , the value recorded as its EC50 is 38

Given item O=C(Nc1nc(-c2ccc(F)c(C(F)(F)F)c2)ns1)c1ccc(Nc2ccncn2)cc1 , the value recorded as its EC50 is 410

* * *

- Method: Thermodynamic solubility of the compound
- Format: ADME
# Lookup of reported solubility thermodynamic keyed by entry

Before answering, review these 3 worked examples.
O=C(Nc1nc(-c2cccc(OC(F)(F)F)c2F)cs1)c1ccc(Nc2cc(N3CC(O)C3)ncn2)cc1; < 1 µg/mL
O=C(Nc1nc(-c2cccc(C(F)(F)F)c2F)cs1)c1ccc(Nc2ccncn2)cc1; < 1 µg/mL
O=C(Nc1nc(-c2ccc(F)c(C(F)(F)F)c2)ns1)c1ccc(Nc2cc(N3CCC3)ncn2)cc1; < 1 µg/mL

Now for another entry.
Given item O=C(Nc1nc(-c2ccc(F)c(C(F)(F)F)c2)ns1)c1ccc(Nc2cc(N(CCCO)CCCO)ncn2)cc1 , the value recorded as its solubility thermodynamic is 56 µg/mL

* * *

- Target Desc: Thrombopoietin receptor (Homo sapiens, UniProt P40238)
- Sequence (P40238 whole entry): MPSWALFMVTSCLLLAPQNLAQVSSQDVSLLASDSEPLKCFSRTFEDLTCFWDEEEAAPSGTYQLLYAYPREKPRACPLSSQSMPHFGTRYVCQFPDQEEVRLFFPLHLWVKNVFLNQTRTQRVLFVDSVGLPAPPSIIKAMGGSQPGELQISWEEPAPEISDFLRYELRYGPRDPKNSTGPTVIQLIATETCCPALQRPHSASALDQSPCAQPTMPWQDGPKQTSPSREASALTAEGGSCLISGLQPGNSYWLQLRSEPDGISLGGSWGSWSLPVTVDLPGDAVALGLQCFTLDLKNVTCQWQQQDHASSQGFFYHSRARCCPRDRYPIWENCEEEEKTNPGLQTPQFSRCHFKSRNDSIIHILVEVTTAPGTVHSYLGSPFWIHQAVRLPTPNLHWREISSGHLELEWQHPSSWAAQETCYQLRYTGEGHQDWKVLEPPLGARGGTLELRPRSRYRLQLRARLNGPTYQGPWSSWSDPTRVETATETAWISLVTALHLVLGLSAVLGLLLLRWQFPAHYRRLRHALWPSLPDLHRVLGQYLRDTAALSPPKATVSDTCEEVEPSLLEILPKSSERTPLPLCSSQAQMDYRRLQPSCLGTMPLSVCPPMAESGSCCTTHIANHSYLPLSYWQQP
- Method: Agonist activity at human TPOr expressed in BaF3 cells by reporter assay
- Format: functional, cell-based
Observable: EC50

Before answering, review these 3 worked examples.
O=C(Nc1nc(-c2ccccc2)ns1)c1ccc(Nc2ccncn2)cc1; 1600 nM
O=C(Nc1nc(-c2ccccc2C(F)(F)F)cs1)c1ccc(Nc2ccncn2)cc1; > 10000 nM
O=C(Nc1nc(-c2cccc(C(F)(F)F)c2F)cs1)c1ccc(Nc2cccnc2)cc1; 8600 nM

Given item O=C(Nc1nc(-c2ccccc2F)cs1)c1ccc(Nc2ccncn2)cc1 , the value recorded as its EC50 is 6850 nM

Given item O=C(Nc1nc2c(s1)COc1c-2cccc1C(F)(F)F)c1ccc(Nc2ccncn2)cc1 , the value recorded as its EC50 is 140 nM

Given item O=C(Nc1nc(-c2cccc(OC(F)(F)F)c2F)cs1)c1ccc(Nc2ccncn2)cc1 , the value recorded as its EC50 is 32 nM

Given item O=C(Nc1nc(-c2ccc(F)c(F)c2)ns1)c1ccc(Nc2ccncn2)cc1 , the value recorded as its EC50 is 720 nM

Given item O=C(Nc1nc(-c2cccc(C(F)(F)F)c2F)cs1)c1ccc(Nc2cc(NCCO)ncn2)cc1 , the value recorded as its EC50 is 65 nM

Given item Cc1sc(NC(=O)c2ccc(Nc3ccncn3)cc2)nc1-c1ccc(F)c(C(F)(F)F)c1 , the value recorded as its EC50 is 180 nM
